- target-entity: Cytochrome P450 1A2 (Homo sapiens)
- assay: p450-cyp1a2 (AID 410)
- condition-notes: recombinant CYP1A2, luciferin-ME demethylation, luminescence; series mostly up to 57 µM
Inconclusive results are not listed. Calls of active or inactive are those of the source. Calls come from the whole dose curve.
Your reply should match one of these outcome classes. active, inactive

Here's what some known entries look like.
compound	target-entity	assigned-label
COc1c2c(cc3c1OCO3)CCN(C)C2	Cytochrome P450 1A2 (Homo sapiens)	active
O=P1(N(CCCl)CCCl)NCCCO1 (configuration not stated)	Cytochrome P450 1A2 (Homo sapiens)	inactive
O=C(O)CCCc1ccc(N(CCCl)CCCl)cc1	Cytochrome P450 1A2 (Homo sapiens)	inactive
Cc1ncsc1CCCl	Cytochrome P450 1A2 (Homo sapiens)	active
O=c1oc2ccccc2c(O)c1Cc1c(O)c2ccccc2oc1=O	Cytochrome P450 1A2 (Homo sapiens)	active

What did this assay record as the result for "NCCc1ccc(O)cc1" ?
inactive

What did this assay record as the result for "O=c1[nH]oc2c1CCNC2" ?
inactive

----------
// reported Z-AUC per item
- assay: qHTS drug screen for cell cycle checkpoint inhibitors in PARPi-resistant BRCA-mutant ovarian cancer cell lines. (AID 1963452)
- condition-notes: PEO1/OlaR viability, CellTiter-Glo luminescence, 96 h; measured here: PEO1 parental Z-AUC; stronger effect = lower value
- Text: Women's Malignancies Branch, Center for Cancer Research (CCR), National Cancer Institute (NCI), National Institutes of Health (NIH), Bethesda, MD Poly (ADP-ribose) polymerase inhibitors (PARPis) have changed the treatment paradigm in breast cancer gene (BRCA) - mutant high-grade serous ovarian carcinoma (HGSC). […] 6; Detection; Luminescence, PHERAstar (BMG Labtech) plate reader. […] 6. Luminescence readings were taken using PHERAstar (BMG Labtech). […]
Just the number, please, no unit after it.

molecule	measured
CC(NC(C)(C)C)C(=O)c1cccc(Cl)c1 (centres undefined)	0.0369
C[C@]12Cc3cn[nH]c3C[C@@H]1CC[C@@H]1[C@@H]2CC[C@@]2(C)[C@H]1CC[C@]2(C)O	0.915
CN1C(=O)COc2c(C(=O)NC3CN4CCC3CC4)cc(Cl)cc21 (centres undefined)	-0.0882

Output measured Z-AUC for this item: "CC(C)c1cccc(C(C)C)c1O"
0.696

----------
- assay: Quantitative High-Throughput drug screen in 47 multiple myeloma cell lines against the NCATS MIPE library collection: XG6_PLB cell viability assay (AID 1919865); note: nearly all actives have a fitted effect of over 40% in size
- condition-notes: XG6 myeloma viability, CellTiter-Glo ATP luminescence, 48 h; series mostly up to 45.8 µM
Records with an inconclusive call do not appear. Activity calls are given as the source filed them. Calls follow the shape of the dose curve; as a rule, active = well fitted cell-killing curve with a large enough effect; inconclusive = small, poorly fitted or top-dose-only effect, or effect the other way; inactive = no such curve, though single readings can be large or run the other way.
Your reply should match one of these outcome classes. 1 (active), -1 (inactive)

Here's what some known entries look like.
compound	assigned-label
C[C@](O)(CS(=O)(=O)c1ccc(F)cc1)C(=O)Nc1ccc(C#N)c(C(F)(F)F)c1	1
C[C@]12CC[C@@H]3c4ccc(OC(=O)N(CCCl)CCCl)cc4CC[C@H]3[C@@H]1CC[C@@H]2OP(=O)(O)O	-1
CN1C(=O)COc2c(C(=O)NC3CN4CCC3CC4)cc(Cl)cc21 (stereo unspecified)	-1
C[C@]12CC[C@H]3[C@@H](CC[C@@]45O[C@H]4C(O)=C(C#N)C[C@]35C)[C@H]1CC[C@H]2O	-1
CCC1(c2ccc(N)cc2)CCC(=O)NC1=O (stereo unspecified)	-1

Please turn your attention to the following entry.
What did this assay record as the result for O=P1(N(CCCl)CCCl)NCCCO1 (stereo unspecified) ?
-1
